# system name: UniProtKB Q96EB6
# Sequence (Q96EB6 1-747): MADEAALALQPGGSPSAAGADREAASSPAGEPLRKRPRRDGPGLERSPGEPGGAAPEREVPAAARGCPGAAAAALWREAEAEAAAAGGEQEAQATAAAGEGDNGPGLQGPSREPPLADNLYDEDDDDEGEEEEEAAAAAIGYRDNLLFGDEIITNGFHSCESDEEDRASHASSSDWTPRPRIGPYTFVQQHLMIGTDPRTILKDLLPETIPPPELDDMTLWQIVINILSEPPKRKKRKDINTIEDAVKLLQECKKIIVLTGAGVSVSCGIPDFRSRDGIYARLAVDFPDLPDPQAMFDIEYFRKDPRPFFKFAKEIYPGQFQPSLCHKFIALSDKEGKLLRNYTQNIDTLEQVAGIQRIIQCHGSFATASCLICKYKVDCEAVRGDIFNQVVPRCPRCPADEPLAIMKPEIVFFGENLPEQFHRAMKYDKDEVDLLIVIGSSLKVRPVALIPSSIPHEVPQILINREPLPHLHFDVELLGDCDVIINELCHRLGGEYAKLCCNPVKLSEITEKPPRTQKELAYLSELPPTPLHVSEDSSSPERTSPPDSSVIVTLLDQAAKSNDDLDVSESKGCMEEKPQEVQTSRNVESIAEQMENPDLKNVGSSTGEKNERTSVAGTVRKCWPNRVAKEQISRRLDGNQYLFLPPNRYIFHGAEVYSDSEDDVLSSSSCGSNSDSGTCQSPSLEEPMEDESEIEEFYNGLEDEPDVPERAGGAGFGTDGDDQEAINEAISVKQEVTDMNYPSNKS
# method: Mass spectrometry based SIRT1 deacetylation assay (activation)
# Format: biochemical
# run parameters: 10 nM SIRT1, 0.5 μM peptide substrate, 120 μM βNAD+, 25 min at 25° C.
experimental endpoint: EC1.5 (concentration of test compound that results in 150% activation of SIRT1)

Reference set, count: 6
[
  {
    "compound": "O=C(Nc1cccc2ccc(-c3cccc(C(F)(F)F)c3)nc12)c1cc[nH]n1",
    "val": "A (EC1.5<1.0 uM)"
  },
  {
    "compound": "O=C(Nc1cccnc1)c1cccc2ccc(-c3cccnc3)nc12",
    "val": "C (EC1.5>25 uM)"
  },
  {
    "compound": "O=C(Nc1nc(-c2ccccc2)cs1)c1cccc2ccc(-c3cccc(C(F)(F)F)c3)nc12",
    "val": "C (EC1.5>25 uM)"
  },
  {
    "compound": "Cc1cc(-c2ccc3cccc(C(=O)Nc4nccs4)c3n2)no1",
    "val": "C (EC1.5>25 uM)"
  },
  {
    "compound": "O=C(Nc1nccs1)c1cccc2ccc(-c3ccnc(C(F)F)c3)nc12",
    "val": "A (EC1.5<1.0 uM)"
  },
  {
    "compound": "O=C(Nc1nccs1)c1cccc2cnc(-c3cccc(C(F)(F)F)c3)nc12",
    "val": "C (EC1.5>25 uM)"
  }
]

Challenge: So what does the record say about EC1.5 (concentration of test compound that results in 150% activation of SIRT1) for O=C(Nc1nc(CN2CCOCC2)cs1)c1cccc2ccc(-c3cccc(OC(F)(F)F)c3)nc12 ?
Response given: A (EC1.5<1.0 uM)

Challenge: Request: O=C(Nc1ccc(CN2CCCC2)nc1)c1cccc2ccc(-c3cccc(C(F)(F)F)c3)nc12
Response given: A (EC1.5<1.0 uM)

Challenge: Request: O=C(Nc1cccc2ccc(-c3ccc(N4CCOCC4)nc3)nc12)c1cscn1
Response given: B (EC1.5 1-25 uM)

Challenge: Request: O=C(Nc1nccs1)c1c(F)ccc2ccc(-c3cccc(C(F)(F)F)c3)nc12
Response given: B (EC1.5 1-25 uM)

Challenge: Request: O=C(Nc1nccs1)c1cccc2ccc(-c3cccc(OC4CCNCC4)c3)nc12
Response given: A (EC1.5<1.0 uM)

Challenge: Request: O=C(Nc1nccs1)c1ccc(F)c2ccc(-c3cccc(C(F)(F)F)c3)nc12
Response given: C (EC1.5>25 uM)

Challenge: Request: O=C(Nc1ccnc(N2CCOCC2)c1)c1cccc2ccc(-c3cccc(C(F)(F)F)c3)nc12
Response given: A (EC1.5<1.0 uM)

Challenge: Request: FC(F)(F)Oc1cccc(-c2ccc3cccc(NCc4cccnc4)c3n2)c1
Response given: C (EC1.5>25 uM)

Challenge: Request: O=S(=O)(Nc1cccc2ccc(-c3cccc(OC(F)(F)F)c3)nc12)N1CCCC1
Response given: C (EC1.5>25 uM)

Challenge: Request: O=C(Nc1nc(CN2CCOCC2)cs1)c1cccc2ccc(-c3cccc(C(F)(F)F)c3)nc12
Response given: A (EC1.5<1.0 uM)

Challenge: Request: O=C(Nc1ccc(OCC(O)CO)cc1)c1cccc2ccc(-c3cccc(C(F)(F)F)c3)nc12 (centres unmarked)
Response given: A (EC1.5<1.0 uM)

###

# system name: SIRT1 (Homo sapiens)
# method: Mass spectrometry based SIRT1 deacetylation assay (activation)
# Format: biochemical
# run parameters: 10 nM SIRT1, 0.5 μM peptide substrate, 120 μM βNAD+, 25 min at 25° C.
experimental endpoint: EC1.5 (concentration of test compound that results in 150% activation of SIRT1)

[
  {
    "smiles text": "O=C(Nc1cccnc1)c1cccc2ccc(-c3cccc(N4CCOCC4)c3)nc12",
    "val": "A (EC1.5<1.0 uM)"
  },
  {
    "smiles text": "O=C(Nc1ccccn1)c1cccc2ccc(-c3cccc(OC(F)(F)F)c3)nc12",
    "val": "A (EC1.5<1.0 uM)"
  },
  {
    "smiles text": "O=C(Nc1cccc2ccc(-c3ccccc3O)nc12)c1cscn1",
    "val": "B (EC1.5 1-25 uM)"
  },
  {
    "smiles text": "O=C(Nc1cccc2ccc(-c3cccnc3)nc12)c1cccc(OCCN2CCOCC2)c1",
    "val": "B (EC1.5 1-25 uM)"
  }
]

###

# system name: SIRT1 (Homo sapiens)
# Sequence (Q96EB6 1-747): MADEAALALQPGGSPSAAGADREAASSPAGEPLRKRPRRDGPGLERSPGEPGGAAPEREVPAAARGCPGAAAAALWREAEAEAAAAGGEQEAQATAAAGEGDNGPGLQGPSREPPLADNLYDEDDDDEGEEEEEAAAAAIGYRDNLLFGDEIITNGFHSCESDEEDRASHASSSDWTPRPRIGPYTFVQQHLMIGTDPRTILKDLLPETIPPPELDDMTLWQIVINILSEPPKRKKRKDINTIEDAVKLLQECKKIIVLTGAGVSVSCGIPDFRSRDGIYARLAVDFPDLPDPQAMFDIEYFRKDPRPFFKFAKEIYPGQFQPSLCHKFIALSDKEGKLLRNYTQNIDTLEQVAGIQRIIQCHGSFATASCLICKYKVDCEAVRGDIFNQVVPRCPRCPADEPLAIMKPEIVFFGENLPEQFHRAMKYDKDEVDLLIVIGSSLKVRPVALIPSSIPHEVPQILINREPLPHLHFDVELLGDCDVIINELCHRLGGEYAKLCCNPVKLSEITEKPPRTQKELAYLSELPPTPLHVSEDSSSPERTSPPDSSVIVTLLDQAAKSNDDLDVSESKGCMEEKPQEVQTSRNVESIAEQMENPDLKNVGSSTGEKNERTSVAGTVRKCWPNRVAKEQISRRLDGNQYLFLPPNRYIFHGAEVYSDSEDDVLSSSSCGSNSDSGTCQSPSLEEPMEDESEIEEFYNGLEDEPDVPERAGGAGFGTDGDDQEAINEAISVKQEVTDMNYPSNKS
# method: Mass spectrometry based SIRT1 deacetylation assay (activation)
# Assay type: biochemical
# run parameters: 10 nM SIRT1, 0.5 μM peptide substrate, 120 μM βNAD+, 25 min at 25° C.
experimental endpoint: EC1.5 (concentration of test compound that results in 150% activation of SIRT1)

Reference set, count: 5
[
  {
    "smiles text": "FC(F)(F)c1ccc(-c2ccc3cccc(NCc4cccnc4)c3n2)cc1",
    "val": "C (EC1.5>25 uM)"
  },
  {
    "smiles text": "Cc1csc(NC(=O)c2cccc3ccc(-c4cccc(N5CCOCC5)c4)nc23)n1",
    "val": "A (EC1.5<1.0 uM)"
  },
  {
    "smiles text": "Cc1cnc(NC(=O)c2cccc3ccc(-c4cccc(OC5CCNCC5)c4)nc23)s1",
    "val": "A (EC1.5<1.0 uM)"
  },
  {
    "smiles text": "O=C(Nc1cccc2ccc(-c3ccccc3)nc12)c1cccc(OC(F)(F)F)c1",
    "val": "C (EC1.5>25 uM)"
  },
  {
    "smiles text": "c1cncc(CNc2cccc3ccc(-c4cccnc4)nc23)c1",
    "val": "C (EC1.5>25 uM)"
  }
]

Challenge: So what does the record say about EC1.5 (concentration of test compound that results in 150% activation of SIRT1) for c1cncc(CNc2cccc3ccc(-c4ccc5c(c4)OCO5)nc23)c1 ?
Response given: C (EC1.5>25 uM)

Challenge: Request: Cc1nc(NC(=O)c2cccc3ccc(-c4cccc(C(F)(F)F)c4)nc23)sc1C
Response given: A (EC1.5<1.0 uM)
